system: human orexin-1 receptor (Homo sapiens (Human), UniProt O43613)
Sequence (O43613 whole entry): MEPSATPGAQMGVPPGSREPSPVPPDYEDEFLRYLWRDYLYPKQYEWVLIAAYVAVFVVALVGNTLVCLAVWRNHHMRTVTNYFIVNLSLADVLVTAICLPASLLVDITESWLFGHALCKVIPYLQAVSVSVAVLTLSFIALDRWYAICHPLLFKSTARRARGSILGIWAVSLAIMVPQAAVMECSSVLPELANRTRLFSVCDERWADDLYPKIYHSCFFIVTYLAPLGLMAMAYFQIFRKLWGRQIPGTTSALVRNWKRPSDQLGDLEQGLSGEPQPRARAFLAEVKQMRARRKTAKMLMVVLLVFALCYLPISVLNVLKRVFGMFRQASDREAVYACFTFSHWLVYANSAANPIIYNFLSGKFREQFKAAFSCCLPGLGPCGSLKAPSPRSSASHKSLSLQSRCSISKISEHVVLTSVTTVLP
assay: Intracellular calcium measurements (FLIPR), antagonism of orexin-A response
test_conditions: CHO cells expressing human orexin-1 receptor, 3 nM orexin-A, geometric mean if determined several times, read-out: IC50 OX1
Procedure: Antagonistic activities on both orexin receptors have been measured for each example compound using the following procedure: In Vitro Assay: Intracellular Calcium Measurements: […] Within the Fluorescent Imaging Plate Reader (FLIPR Tetra, Molecular Devices), antagonists are added to the plate in a volume of 10 μL/well, incubated for 120 min and finally 10 μL/well of agonist is added. […] The calculated IC50 values may fluctuate depending on the daily cellular assay performance. […]
assay_endpoint: pIC50
Here pIC50 is given on a logarithmic scale as minus log10 of the concentration in mol/L.

chemical_string | assay_endpoint | value_reported
COc1cc(C(=O)N2CC[C@H]2c2nnc(-c3ccccc3OC(F)(F)F)[nH]2)c(-n2nccn2)cc1C | pIC50 | 6.34
CCOc1ncccc1-c1nnc([C@@H]2CCN2C(=O)c2ccc(C)cc2-n2nccn2)[nH]1 | pIC50 | 5.69
COc1cc(C(=O)N2CC[C@H]2c2noc(-c3cccc(F)c3OC)n2)c(-n2nccn2)cc1C | pIC50 | 6.75
COc1cc(C(=O)N2CC[C@H]2c2nc(-c3ccccc3OC(F)(F)F)no2)c(-n2nccn2)cc1Cl | pIC50 | 6.42

Ask: Return reported pIC50 for target or system human orexin-1 receptor (Homo sapiens (Human), UniProt O43613), item Cc1ccc(-n2nccn2)c(C(=O)N2CC[C@H]2c2noc(-c3cccc(Cl)c3C)n2)c1 .
Reply: 7.06

Ask: Return reported pIC50 for target or system human orexin-1 receptor (Homo sapiens (Human), UniProt O43613), item Cc1c(Cl)cccc1-c1nc([C@@H]2CCN2C(=O)c2cc(F)ccc2-c2ncccn2)no1 .
Reply: 6.01

Ask: Return reported pIC50 for target or system human orexin-1 receptor (Homo sapiens (Human), UniProt O43613), item Cc1nc(C(=O)N2CC[C@H]2c2nc(-c3cccc(Cl)c3C)no2)c(-c2ccccc2)s1 .
Reply: 5.99

====

system: human orexin-2 receptor (Homo sapiens (Human), UniProt O43614)
Sequence (O43614 whole entry): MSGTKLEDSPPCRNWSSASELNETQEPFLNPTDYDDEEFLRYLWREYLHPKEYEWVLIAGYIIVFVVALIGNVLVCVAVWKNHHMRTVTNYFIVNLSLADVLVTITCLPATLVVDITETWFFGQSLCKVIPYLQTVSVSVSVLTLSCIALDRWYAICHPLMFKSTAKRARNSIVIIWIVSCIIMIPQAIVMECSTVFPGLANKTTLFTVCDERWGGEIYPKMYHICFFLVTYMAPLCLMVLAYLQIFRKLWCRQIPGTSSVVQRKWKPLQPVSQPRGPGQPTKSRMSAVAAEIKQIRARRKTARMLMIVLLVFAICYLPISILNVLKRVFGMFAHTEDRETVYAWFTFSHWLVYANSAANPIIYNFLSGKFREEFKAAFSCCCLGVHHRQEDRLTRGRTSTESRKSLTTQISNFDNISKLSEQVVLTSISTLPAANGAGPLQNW
assay: Intracellular calcium measurements (FLIPR), antagonism of orexin-A response
test_conditions: CHO cells expressing human orexin-2 receptor, 3 nM orexin-A, geometric mean if determined several times, read-out: IC50 OX2
Protocol: Antagonistic activities on both orexin receptors have been measured for each example compound using the following procedure: In Vitro Assay: Intracellular Calcium Measurements: […] Within the Fluorescent Imaging Plate Reader (FLIPR Tetra, Molecular Devices), antagonists are added to the plate in a volume of 10 μL/well, incubated for 120 min and finally 10 μL/well of agonist is added. […] The calculated IC50 values may fluctuate depending on the daily cellular assay performance. […]
// reported pIC50 per item
Here pIC50 is given on a logarithmic scale as minus log10 of the concentration in mol/L.

Answered cases to consult:
chemical_string | pIC50
O=C(c1cc(C(F)(F)F)ccc1-n1nccn1)N1CC[C@H]1c1nc(-c2ccccc2OC(F)(F)F)no1 | 6.62
Cc1cccc(-c2oc(C)nc2C(=O)N2CC[C@H]2c2nc(-c3cccc(Cl)c3C)no2)c1 | 6.26
Cc1cccc(-n2nccn2)c1C(=O)N1CC[C@H]1c1nc(-c2ccccc2OC(F)(F)F)no1 | 6.94
Cc1ccc(-c2noc([C@@H]3CCN3C(=O)c3cc(C)ccc3-n3nccn3)n2)cc1 | 6.74
Cc1cccc(-n2nccn2)c1C(=O)N1CC[C@H]1c1nc(-c2cccc(Cl)c2C)no1 | 7.16
Cc1cccc(-c2oc(C)nc2C(=O)N2CC[C@H]2c2nc(-c3ccccc3OC(F)(F)F)no2)c1 | 6.51
COc1cc(C(=O)N2CC[C@H]2c2nc(-c3ccccc3OC(F)(F)F)no2)c(-n2nccn2)cc1F | 7.41
Cc1ccc(C(=O)N2CC[C@H]2c2noc(-c3cccc(Cl)c3C)n2)c(-n2nccn2)c1 | 8.05

Ask: Return reported pIC50 for target or system human orexin-2 receptor (Homo sapiens (Human), UniProt O43614), item Cc1ccc(-c2sc(C)nc2C(=O)N2CC[C@H]2c2nc(-c3cccc(Cl)c3C)no2)cc1 .
Reply: 6.77

Ask: Return reported pIC50 for target or system human orexin-2 receptor (Homo sapiens (Human), UniProt O43614), item Cc1ccc(-c2ccccc2)c(C(=O)N2CC[C@H]2c2nc(-c3ccccc3OC(F)(F)F)no2)c1 .
Reply: 8.40

Ask: Return reported pIC50 for target or system human orexin-2 receptor (Homo sapiens (Human), UniProt O43614), item Cc1ccc(-n2nccn2)c(C(=O)N2CC[C@H]2c2nc(-c3ccccc3)no2)c1 .
Reply: 6.54

====

system: human orexin-2 receptor (Homo sapiens (Human), UniProt O43614)
assay: Intracellular calcium measurements (FLIPR), antagonism of orexin-A response
test_conditions: CHO cells expressing human orexin-2 receptor, 3 nM orexin-A, geometric mean if determined several times, read-out: IC50 OX2
assay_endpoint: pIC50
Here pIC50 is given on a logarithmic scale as minus log10 of the concentration in mol/L.

Answered cases to consult:
chemical_string | system | assay_endpoint | value_reported
Cc1ccc(-c2ccccc2)c(C(=O)N2CC[C@H]2c2noc(-c3cccc(Cl)c3C)n2)c1 | human orexin-2 receptor (Homo sapiens (Human), UniProt O43614) | pIC50 | 8.70
COc1cc(C(=O)N2CC[C@H]2c2noc(-c3cccc(Cl)c3OC)n2)c(-n2nccn2)cc1Cl | human orexin-2 receptor (Homo sapiens (Human), UniProt O43614) | pIC50 | 9.00
Cc1ccc(-n2nccn2)c(C(=O)N2CC[C@H]2c2nc(-c3ccccc3C)no2)c1 | human orexin-2 receptor (Homo sapiens (Human), UniProt O43614) | pIC50 | 7.72
Cc1ccc(-c2ccccc2)c(C(=O)N2CC[C@H]2c2nc(-c3cccc(Cl)c3C)no2)c1 | human orexin-2 receptor (Homo sapiens (Human), UniProt O43614) | pIC50 | 8.40
COc1cc(C(=O)N2CC[C@H]2c2nnc(-c3ccccc3OC(F)(F)F)[nH]2)c(-n2nccn2)cc1C | human orexin-2 receptor (Homo sapiens (Human), UniProt O43614) | pIC50 | 8.22
Cc1cc(C(=O)N2CC[C@H]2c2nnc(-c3ccccc3OC(F)(F)F)[nH]2)c(-n2nccn2)cc1C | human orexin-2 receptor (Homo sapiens (Human), UniProt O43614) | pIC50 | 8.05

Moving on to the next compound.
Ask: Return reported pIC50 for target or system human orexin-2 receptor (Homo sapiens (Human), UniProt O43614), item COc1c(Cl)cccc1-c1nc([C@@H]2CCN2C(=O)c2ccc(C)cc2-n2nccn2)no1 .
Reply: 8.40

====

system: UniProt:O43613
assay: Intracellular calcium measurements (FLIPR), antagonism of orexin-A response
test_conditions: CHO cells expressing human orexin-1 receptor, 3 nM orexin-A, geometric mean if determined several times, read-out: IC50 OX1
Rule: measured IC50 below 900 nM gets Met; anything equal to or greater than 900 nM gets Not met.

chemical_string | assigned_class
CCOc1ncccc1-c1nc([C@@H]2CCN2C(=O)c2cc(OC)c(Cl)cc2-n2nccn2)no1 | Met
COc1c(Cl)cccc1-c1nc([C@@H]2CCN2C(=O)c2cc(C)c(C)cc2-n2nccn2)no1 | Met
Cc1cc(C(=O)N2CC[C@H]2c2nc(-c3cccc(Cl)c3C)no2)c(-n2nccn2)cc1C | Met
COc1cc(C(=O)N2CC[C@H]2c2nc(-c3cccc(F)c3C)no2)c(-n2nccn2)cc1F | Not met

Ask: For Cc1ccc(C(=O)N2CC[C@H]2c2nc(-c3ccccc3OC(F)(F)F)no2)c(-n2nccn2)c1 , is the recorded IC50 below the cut-off of 900 nM?
Reply: Met

Ask: For Cc1ccc(-c2ccccc2)c(C(=O)N2CC[C@H]2c2nc(-c3cccc(Cl)c3C)no2)c1 , is the recorded IC50 below the cut-off of 900 nM?
Reply: Met

Ask: For CCOc1ncccc1-c1nc([C@@H]2CCN2C(=O)c2cc(C)ccc2-n2nccn2)no1 , is the recorded IC50 below the cut-off of 900 nM?
Reply: Met

Ask: For Cc1c(Cl)cccc1-c1noc([C@@H]2CCN2C(=O)c2ncsc2-c2ccccc2)n1 , is the recorded IC50 below the cut-off of 900 nM?
Reply: Not met

Ask: For Cc1cccc(-n2nccn2)c1C(=O)N1CC[C@H]1c1nc(-c2ccccc2OC(F)(F)F)no1 , is the recorded IC50 below the cut-off of 900 nM?
Reply: Not met

Ask: For CCOc1ncccc1-c1nc([C@@H]2CCN2C(=O)c2cc(C)c(C)cc2-n2nccn2)no1 , is the recorded IC50 below the cut-off of 900 nM?
Reply: Met

Ask: For Cc1c(Cl)cccc1-c1nc([C@@H]2CCN2C(=O)c2ccccc2-n2nccn2)no1 , is the recorded IC50 below the cut-off of 900 nM?
Reply: Met

Ask: For Cc1nc(C(=O)N2CC[C@H]2c2nc(-c3cccc(Cl)c3C)no2)c(-c2ccccc2C)s1 , is the recorded IC50 below the cut-off of 900 nM?
Reply: Not met

Ask: For Cc1onc(-c2ccccc2Cl)c1C(=O)N1CC[C@H]1c1nc(-c2cccc(Cl)c2C)no1 , is the recorded IC50 below the cut-off of 900 nM?
Reply: Not met
